Test system: SK-MEL-5 melanoma
Test: NCI-60 one-dose screen, 48 h
Conditions: 10 µM unless noted
Compounds without any hit were thinned out: in the full panel of roughly 83,000, 20% have a hit. The source made the active and inactive calls. Rule for the calls: active = growth percent below 10; inactive = the rest.
One label from this list, please: active, inactive

# example entries with known answers
COc1ccc(-n2c(SCc3nnc(NC(=O)c4ccc(Br)cc4)s3)nc3cc(OC)c(OC)cc3c2=O)cc1 :: inactive
C=C(C=O)[C@@H]1CC[C@]2(C)[C@H](C(=O)C=C3[C@H]4C[C@](C)(C(=O)OC)CC[C@]4(C)CC[C@]32C)[C@@]1(C)CCC#N :: active
Cc1ccc(-c2nn(-c3ccccc3)cc2/C=C/C(=O)c2ccc(NC(=O)CCCCCCC(=O)NO)cc2)cc1 :: inactive

Continue with the compound presented below.
Assay result, entry NS(=O)(=O)c1ccc(Nc2nc(SCc3ccccc3)nc3ccccc23)cc1 — outcome?
inactive
